Read-out: Glutathione S-Transferase (GSTA2), GSTA2 (gene 2939)
Assay: LTEA_HepaRG_GSTA2: Life Technologies and Expression Analysis (LTEA) Assay for Glutathione S-Transferase (GSTA2) using HepaRG (AID 2283497)
Details: mRNA level, 48 h; actives raise or lower the signal
Activity calls are given as the source filed them. Rule for the calls: active = hit-call score of the fitted dose curve at least 0.9, where 1 is the maximum; inactive = score below 0.9.
Give your call using only these classes: y (active), n (inactive)

Which outcome was assigned to `O=C(O)C(F)(F)C(F)(F)C(F)(F)C(F)(F)C(F)(F)F` in this test? n

Subsequent entry: `C=CC(=O)NCNC(=O)C=C` y

Subsequent entry: `CC1=C2C[C@H]3[C@@H](CC=C4C[C@@H](O)CC[C@@]43C)[C@@H]2CC[C@]12O[C@@H]1C[C@H](C)CN[C@H]1[C@H]2C` n

Entry source: PubChem BioAssay (EPA / NIEHS)
